Target: Corticotropin-releasing factor receptor 1 (Homo sapiens, UniProt P34998)
Sequence (P34998 whole entry): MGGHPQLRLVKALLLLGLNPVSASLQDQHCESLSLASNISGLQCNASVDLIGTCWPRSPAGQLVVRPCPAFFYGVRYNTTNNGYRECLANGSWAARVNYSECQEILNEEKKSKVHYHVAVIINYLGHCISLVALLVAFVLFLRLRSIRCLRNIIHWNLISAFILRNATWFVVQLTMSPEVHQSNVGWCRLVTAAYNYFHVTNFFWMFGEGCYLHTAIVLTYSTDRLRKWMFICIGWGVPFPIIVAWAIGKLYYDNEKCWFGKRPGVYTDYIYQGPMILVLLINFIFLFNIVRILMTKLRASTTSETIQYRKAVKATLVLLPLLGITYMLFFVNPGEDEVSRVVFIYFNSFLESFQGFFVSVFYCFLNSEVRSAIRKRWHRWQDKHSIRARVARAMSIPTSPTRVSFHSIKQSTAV
Assay: Displacement of [125I-Tyr0]-CRF from recombinant human CRF1 receptor
Measure: pKi
Please express pKi as -log10 of the molar concentration.

Query: Quick one: pKi of CCC(CC)Nc1cc(C)nc2c(-c3ccc(C)cc3Cl)c(C)nn12 ?
Response: 8.82

Query: Quick one: pKi of CCC(CC)Nc1cc(C)nc2c(-c3ccc(Cl)cc3C)c(C)nn12 ?
Response: 8.77

###

tested on: Bel-7402; assay: Antiproliferative activity against human Bel7402 cells measured after 24 hrs by MTT assay; format: functional, cell-based; details: Bel-7402, 24 h
Measure: pIC50
Please express pIC50 as -log10 of the molar concentration.

Query: Quick one: pIC50 of N#Cc1cnn2c(Nc3cc(C(F)(F)F)cc(C(F)(F)F)c3)cc(COCCN3CCCCC3)nc12 ?
Response: 4.86

###

tested on: Escherichia coli; experiment: Antibacterial activity against Escherichia coli measured after 18 hrs by agar dilution method; type: functional
Measure: MIC

Query: Quick one: MIC of Cc1nc(-c2ccccc2)sc1-c1ccn2nc(C)c(-c3ccccc3)c2n1 ?
Response: ≥ 400 µg/mL

Query: Quick one: MIC of Cc1nc(-c2ccccc2)sc1-c1ccn2nc(-c3ccccc3)cc2n1 ?
Response: ≥ 800 µg/mL

Query: Quick one: MIC of Cc1nc(-c2ccccc2)sc1-c1ccn2ncc(-c3ccccc3)c2n1 ?
Response: ≥ 800 µg/mL

Query: Quick one: MIC of OC(Cn1cncn1)(Cn1cncn1)c1ccc(F)cc1F ?
Response: ≥ 800 µg/mL

Query: Quick one: MIC of O=C(O)c1cn(C2CC2)c2cc(N3CCNCC3)c(F)cc2c1=O ?
Response: ≤ 25 µg/mL

Query: Quick one: MIC of Cc1nc(-c2ccccc2)sc1-c1ccn2nc(C#N)cc2n1 ?
Response: ≥ 800 µg/mL

###

target: Gamma-aminobutyric acid receptor subunit alpha-1 (Rattus norvegicus); experiment: Displacement of [3H]RO15-1788 from recombinant rat GABAalpha1 receptor expressed in HEK293 cells after 1 hr
Sequence (P62813 whole entry): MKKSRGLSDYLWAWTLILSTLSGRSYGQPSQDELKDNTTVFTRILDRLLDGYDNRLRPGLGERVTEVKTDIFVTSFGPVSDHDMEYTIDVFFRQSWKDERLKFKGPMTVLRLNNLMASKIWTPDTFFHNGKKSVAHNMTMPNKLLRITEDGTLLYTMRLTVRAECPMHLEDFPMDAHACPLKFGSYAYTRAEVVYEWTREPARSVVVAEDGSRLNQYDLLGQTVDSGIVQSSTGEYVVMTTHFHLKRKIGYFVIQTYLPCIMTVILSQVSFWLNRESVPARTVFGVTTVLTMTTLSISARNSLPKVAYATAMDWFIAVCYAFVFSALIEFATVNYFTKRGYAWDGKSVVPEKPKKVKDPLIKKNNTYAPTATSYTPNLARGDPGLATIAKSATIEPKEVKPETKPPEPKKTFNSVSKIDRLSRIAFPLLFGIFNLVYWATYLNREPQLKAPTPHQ
Measure: pKi
Please express pKi as -log10 of the molar concentration.

Query: Quick one: pKi of O=c1c(-c2ccsc2)c[nH]c2c(-c3ccccn3)cnn12 ?
Response: 8.15

###

system: Escherichia coli; assay: Antibacterial activity against Escherichia coli MTCC 443 assessed as zone of inhibition at 25 to 150 ug/ml measured after 24 hrs by agar well diffusion method; format: functional
Please respond with reported inhibition zone (IZ) for every item in the list.

Query: Quick one: inhibition zone (IZ) of Cc1nn(-c2ccccc2)c(Cl)c1-c1cc(-c2cc(Cl)cc(I)c2O)nc2c(/N=N/c3ccc(Cl)cc3)c(N)nn12 ?
Response: 17 mm

Query: Quick one: inhibition zone (IZ) of Cc1nn(-c2ccccc2)c(Cl)c1-c1cc(-c2cc(Cl)cc(Cl)c2O)nc2c(/N=N/c3ccc(Cl)cc3)c(N)nn12 ?
Response: 26 mm

Query: Quick one: inhibition zone (IZ) of Cc1nn(-c2ccccc2)c(Cl)c1-c1cc(-c2cc(Cl)ccc2O)nc2c(/N=N/c3ccc(Cl)cc3)c(N)nn12 ?
Response: 18 mm

Query: Quick one: inhibition zone (IZ) of Cc1cc(O)c(-c2cc(-c3c(C)nn(-c4ccccc4)c3Cl)n3nc(N)c(/N=N/c4ccc(Cl)cc4)c3n2)cc1Cl ?
Response: 16 mm

Query: Quick one: inhibition zone (IZ) of Cc1ccc(-c2cc(-c3c(C)nn(-c4ccccc4)c3Cl)n3nc(N)c(/N=N/c4ccc(Cl)cc4)c3n2)c(O)c1Br ?
Response: 19 mm
